# maps each entry to its IC50
molecular target: Nav1.7 (or SCN9A) channel; HEK cells stably transfected with hSCN9A (Homo sapiens); construct: expressed in transfected cells; assay: Nav1.7 block, PatchXpress 7000 automated whole-cell voltage clamp, estimated IC50 (EIC50); format: cell-based; details: estimated IC50; hSCN9A HEK cells, PatchXpress platform; Examples 283-814
Use nM as the unit, but write only the number.

Solved cases below.
Compound	IC50, nM
Cn1nc(C(F)(F)F)cc1-c1ccc(Oc2ccc(S(=O)(=O)Nc3ncc(F)s3)cc2C#N)c(F)c1 [Example 535]	170
O=S(=O)(Nc1ncns1)c1cc(F)c(Oc2ccc(C(F)(F)F)cc2-c2cn[nH]c2)cc1F [Example 790]	1.2
Nc1cc(-c2cc(Cl)ccc2Oc2cc(F)c(S(=O)(=O)Nc3ncns3)cc2Cl)ccn1 [Example 732]	3.5
CCn1nc(C(F)(F)F)cc1-c1ccc(Oc2cc(F)c(S(=O)(=O)Nc3nccs3)cc2Cl)cc1 [Example 305]	97
O=S(=O)(Nc1cscn1)c1cc(Cl)c(Oc2ccc(Cl)cc2-c2ccnn2C2CNC2)cc1F [Example 726]	5.8

Please look at the following compound next.
Would you mind telling me what IC50 value was observed for CCc1cc(-n2ccc(C(F)(F)F)n2)ccc1Oc1ccc(S(=O)(=O)Nc2nccs2)cc1C#N [Example 490] ?
660

* * *

target: Nav1.7 (or SCN9A) channel; HEK cells stably transfected with hSCN9A (Homo sapiens); construct: expressed in transfected cells; assay: Nav1.7 block, PatchXpress 7000 automated whole-cell voltage clamp, estimated IC50 (EIC50); format: cell-based; settings: estimated IC50; hSCN9A HEK cells, PatchXpress platform; Examples 283-814
# maps each entry to its IC50
Form field: result (number plus unit)

Solved cases below.
Compound	Experimental value
Cc1coc(-c2cc(Cl)ccc2Oc2ccc(S(=O)(=O)Nc3nccs3)cc2C#N)n1 [Example 318]	1300 nM
COc1cc(-c2cc(Cl)ccc2Oc2ccc(S(=O)(=O)Nc3nccs3)cc2C#N)n(C)n1 [Example 439]	490 nM
O=S(=O)(Nc1ncc(F)s1)c1cc(F)c(Oc2ccc(Cl)cc2-c2cn[nH]c2)cc1F [Example 683]	22 nM

Would you mind telling me what IC50 value was observed for CC(C)(C)n1cc(Cc2cccc(Oc3ccc(S(=O)(=O)Nc4cscn4)cc3C#N)c2)cn1 [Example 419] ?
2100 nM

* * *

target: Nav1.7 (or SCN9A) channel; HEK cells stably transfected with hSCN9A (Homo sapiens, UniProt Q15858); construct: expressed in transfected cells; experiment: Nav1.7 block, PatchXpress 7000 automated whole-cell voltage clamp, estimated IC50 (EIC50); format: cell-based; conditions: estimated IC50; hSCN9A HEK cells, PatchXpress platform; Examples 283-814
Sequence (Q15858 whole entry): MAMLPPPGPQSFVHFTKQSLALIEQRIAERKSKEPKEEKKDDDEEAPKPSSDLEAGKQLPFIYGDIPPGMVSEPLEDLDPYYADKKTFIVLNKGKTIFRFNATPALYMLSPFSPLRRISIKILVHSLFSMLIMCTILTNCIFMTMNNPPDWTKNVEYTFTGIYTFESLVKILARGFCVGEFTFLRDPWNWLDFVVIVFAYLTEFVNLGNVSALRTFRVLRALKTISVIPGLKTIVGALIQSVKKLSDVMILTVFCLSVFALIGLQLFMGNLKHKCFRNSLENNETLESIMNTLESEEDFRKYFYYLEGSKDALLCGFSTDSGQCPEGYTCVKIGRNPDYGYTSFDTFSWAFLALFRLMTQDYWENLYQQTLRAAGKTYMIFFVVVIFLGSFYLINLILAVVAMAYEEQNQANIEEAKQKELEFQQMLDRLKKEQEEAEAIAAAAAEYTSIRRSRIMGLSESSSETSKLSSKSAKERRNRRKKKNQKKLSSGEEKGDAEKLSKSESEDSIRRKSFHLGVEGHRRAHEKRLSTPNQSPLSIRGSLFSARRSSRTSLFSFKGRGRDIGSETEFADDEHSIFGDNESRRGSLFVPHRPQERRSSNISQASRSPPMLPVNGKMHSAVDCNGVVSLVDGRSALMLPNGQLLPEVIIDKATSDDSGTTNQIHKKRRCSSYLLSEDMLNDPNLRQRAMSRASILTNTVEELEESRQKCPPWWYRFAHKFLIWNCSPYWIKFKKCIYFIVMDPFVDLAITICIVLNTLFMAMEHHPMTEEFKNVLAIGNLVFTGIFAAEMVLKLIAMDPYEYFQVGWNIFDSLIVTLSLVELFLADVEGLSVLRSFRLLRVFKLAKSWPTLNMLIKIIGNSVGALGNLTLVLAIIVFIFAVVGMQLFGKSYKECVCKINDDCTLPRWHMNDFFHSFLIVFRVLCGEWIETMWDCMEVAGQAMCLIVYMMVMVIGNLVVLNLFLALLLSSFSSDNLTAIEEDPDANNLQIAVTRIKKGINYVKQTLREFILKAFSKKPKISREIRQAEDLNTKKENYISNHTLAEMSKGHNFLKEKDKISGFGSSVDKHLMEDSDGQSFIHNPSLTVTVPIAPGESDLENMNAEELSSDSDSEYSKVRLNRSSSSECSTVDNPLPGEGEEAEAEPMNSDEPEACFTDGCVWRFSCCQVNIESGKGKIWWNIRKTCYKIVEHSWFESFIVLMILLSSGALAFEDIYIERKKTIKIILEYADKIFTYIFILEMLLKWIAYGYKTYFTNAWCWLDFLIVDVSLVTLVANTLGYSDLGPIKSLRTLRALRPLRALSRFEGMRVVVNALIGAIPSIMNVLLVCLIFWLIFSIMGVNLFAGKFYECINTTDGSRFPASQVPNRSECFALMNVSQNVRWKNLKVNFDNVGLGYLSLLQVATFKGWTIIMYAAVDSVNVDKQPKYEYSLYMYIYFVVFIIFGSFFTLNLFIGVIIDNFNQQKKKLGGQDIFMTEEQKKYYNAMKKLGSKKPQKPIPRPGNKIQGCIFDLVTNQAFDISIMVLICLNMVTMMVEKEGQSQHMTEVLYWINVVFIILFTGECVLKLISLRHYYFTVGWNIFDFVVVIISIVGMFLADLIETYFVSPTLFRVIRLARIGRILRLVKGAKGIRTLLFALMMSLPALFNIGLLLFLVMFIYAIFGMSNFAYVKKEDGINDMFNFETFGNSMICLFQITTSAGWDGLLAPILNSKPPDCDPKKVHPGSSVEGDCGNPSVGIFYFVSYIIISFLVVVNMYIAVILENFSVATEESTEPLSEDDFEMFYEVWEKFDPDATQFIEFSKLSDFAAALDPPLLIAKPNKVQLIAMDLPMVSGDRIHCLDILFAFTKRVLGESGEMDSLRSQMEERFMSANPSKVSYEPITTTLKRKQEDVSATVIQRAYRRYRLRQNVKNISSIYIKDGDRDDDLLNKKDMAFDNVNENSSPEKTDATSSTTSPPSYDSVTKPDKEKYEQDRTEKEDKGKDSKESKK
Property: log10 of IC50 (log10 of the value in nM)
Annotation: log10 of IC50, nM basis.

Solved cases below.
Substance smiles	Property	Experimental value
CCc1cc(S(=O)(=O)Nc2cscn2)c(F)cc1Oc1ccc(F)cc1-c1ccnn1C	log10 of IC50	2.20
N#Cc1cc(S(=O)(=O)Nc2ncc(F)s2)ccc1Oc1ccc(I)cc1-c1ccn[nH]1	log10 of IC50	0.38

Would you mind telling me what log10 of IC50 value was observed for N#Cc1cc(S(=O)(=O)Nc2nccs2)ccc1Oc1ccc(Cl)cc1-n1ccnn1 ?
2.74
